tested.system: Polyunsaturated fatty acid lipoxygenase ALOX15 (Homo sapiens) (UniProt P16050)
Sequence (P16050 whole entry): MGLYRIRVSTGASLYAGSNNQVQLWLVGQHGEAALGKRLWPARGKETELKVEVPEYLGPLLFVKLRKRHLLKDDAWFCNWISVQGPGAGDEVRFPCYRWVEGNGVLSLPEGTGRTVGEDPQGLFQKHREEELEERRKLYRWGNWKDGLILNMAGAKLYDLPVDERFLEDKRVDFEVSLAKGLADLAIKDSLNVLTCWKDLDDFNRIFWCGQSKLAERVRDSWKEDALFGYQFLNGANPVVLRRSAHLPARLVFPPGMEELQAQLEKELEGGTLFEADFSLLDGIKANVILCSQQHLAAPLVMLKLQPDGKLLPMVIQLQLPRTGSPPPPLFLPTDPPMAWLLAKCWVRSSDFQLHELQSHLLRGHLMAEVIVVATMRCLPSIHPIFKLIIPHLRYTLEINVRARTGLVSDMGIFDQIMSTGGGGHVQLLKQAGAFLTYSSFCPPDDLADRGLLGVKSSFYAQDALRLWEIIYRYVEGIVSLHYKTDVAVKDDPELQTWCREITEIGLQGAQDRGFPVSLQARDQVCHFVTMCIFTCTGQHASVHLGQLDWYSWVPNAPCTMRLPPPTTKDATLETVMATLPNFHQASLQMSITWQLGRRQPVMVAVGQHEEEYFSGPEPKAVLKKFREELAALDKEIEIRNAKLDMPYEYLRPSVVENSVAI
test.details: Inhibition of recombinant human 15-LOX-1 expressed in Escherichia coli BL21(DE3) assessed as residual activity at 50 uM using linoleic acid as substrate preincubated for 10 mins followed by substrate addition
metric: Activity (%)

[[record]]
chemical_structure = "CC(C)(C)C(=O)c1c(N)[nH]c(C(=O)c2ccccc2)c1-c1ccccc1"
val = 112

[[record]]
chemical_structure = "Nc1[nH]c(C(=O)c2ccccc2)c(-c2ccc(Br)cc2)c1C(=O)c1ccccc1"
val = 63.2

[[record]]
chemical_structure = "COc1ccccc1CCNC(=O)c1c(N)[nH]c(C(=O)c2ccccc2)c1-c1ccc(Cl)cc1Cl"
val = 91.7


I: CC(C)(C)C(=O)c1c(N)[nH]c(C(=O)c2ccccc2)c1-c1cc2ccccc2nc1Cl
II: Nc1[nH]c(C(=O)c2ccc(Br)cc2)c(-c2ccccc2Cl)c1C(=O)NCCc1c[nH]c2ccccc12
Query: Select one. Lower Activity: I or II Answer with the label corresponding to your selection.
Response: II
